Each recorded value in this set is attributed to patent US9512139B2.

# ASSAY_NOTES: Metabolic stability assay, human microsomes
# Format: in vitro ADME
# CONDITION_DESCRIPTION: both, human, microsomes, 1 h, 10 µM
READOUT: Metabolic Stability 60 min hum [% remain.] (% remain.)

A = CN1C(=O)c2cccc(c2)OC[C@@H]2C[C@H](NC(=O)CCc3ccncc3)CN2C(=O)COC[C@H]1C(=O)NCc1ccc2ccccc2c1 [Ex. 372]
B = CN1CCC[C@H](NCC(C)(C)C)C(=O)N2C[C@@H](Oc3ccccc3)C[C@H]2COc2cccc(c2)C1=O [Ex. 563]
C = CC(C)CN[C@H]1C[C@H]2COc3cccc(c3)C(=O)N(C)[C@H](C(=O)NCc3ccc4ccccc4c3)COCC(=O)N2C1 [Ex. 373]
D = CN1CCC[C@H](NC(=O)CC(C)(C)C)C(=O)N2C[C@@H](O)C[C@H]2COc2cccc(c2)C1=O [Ex. 571]
Hey, can you sort those molecules up there by Metabolic Stability 60 min hum [% remain.], smallest first? # respond with the labels, arranged in the requested order
B, C, A, D

====

# ASSAY_NOTES: in vitro
# Format: in vitro ADME, human
# CONDITION_DESCRIPTION: human, plasma, 4 h, 10 µM
READOUT: Plasma Stability 240 min hum [% remain.] (% remain.)

1) CC(C)CN1C[C@H]2C[C@H]1COc1ccc(F)cc1C(=O)N(C)CCC[C@H](NC(=O)Cc1ccccc1)C(=O)N2    80
2) CN(C)CCNC(=O)[C@@H]1CCC(=O)N(C)CC(=O)N2C[C@@H](NC(=O)Cc3cccc4ccccc34)C[C@H]2COc2ccc(F)cc2C(=O)N1C    83
3) CN(C)CCNC(=O)[C@@H]1CCC(=O)N(C)CC(=O)N2C[C@@H](NC(=O)Cc3c[nH]c4ccccc34)C[C@H]2COc2ccc(F)cc2C(=O)N1C    100
4) CN(C)CC(=O)N[C@@H]1C[C@H]2COc3cccc(c3)C(=O)N(C)C[C@H](NC(=O)Cc3ccc4ccccc4c3)C(=O)N(C)CC(=O)N2C1    100

a = CN1C[C@H](NC(=O)OCc2ccccc2)C(=O)N(C)CC(=O)N2C[C@@H](NC(=O)OC(C)(C)C)C[C@H]2COc2cncc(c2)C1=O
b = CCCCCCCCCC(=O)N[C@H]1C[C@H]2COc3ccc(F)cc3C(=O)N(C)[C@@H](C(=O)NCc3ccc4ccccc4c3)CCC(=O)N(C)CC(=O)N2C1
Min Plasma Stability 240 min hum [% remain.]? a | b Write down the label attached to your selection.
b

====

# ASSAY_NOTES: Metabolic stability assay, CD-1 mouse microsomes
# Type: in vitro ADME
# CONDITION_DESCRIPTION: both, CD-1, mouse, microsomes, 1 h, 10 µM
READOUT: Metabolic Stability 60 min mouse [% remain.] (% remain.)

1. CN1CCC[C@H](NC(=O)CC(C)(C)C)C(=O)N2C[C@@H](N)C[C@H]2COc2cccc(c2)C1=O    93
2. CN(C)CCNC(=O)[C@H]1CCC(=O)N(C)CC(=O)N2CCN(C(=O)Cc3ccc4ccccc4c3)C[C@@H]2COc2ccc(F)cc2C(=O)N1C    99
3. CN1CC(=O)N2C[C@@H](NC(=O)CN3CCCC3)C[C@H]2COc2ccc(F)cc2C(=O)N(C)[C@@H](C(=O)N2CCCC2)CCC1=O    100

====

# ASSAY_NOTES: Metabolic stability assay, human microsomes
# Format: in vitro ADME
# CONDITION_DESCRIPTION: both, human, microsomes, 1 h, 10 µM
# Method: 4. Plasma and Metabolic Stability Assays […] Microsomes from a human 50 donor mixed gender pool and 1:1 mixtures of microsomes from CD-1 mouse single-gender pools are purchased from Celsis (Belgium). […] After acetonitrile precipitation (2 volumes) and HPLC/MS/MS analysis metabolic turnover is expressed in % of the initial 0 minutes value and half life T½ (min) is calculated. […]
READOUT: Metabolic Stability 60 min hum [% remain.] (% remain.)

Worked cases, Metabolic Stability 60 min hum [% remain.] given:
1. CNC(=O)[C@H]1CCC(=O)N(C)CC(=O)N2C[C@@H](NC(=O)Cc3ccc4ccccc4c3)C[C@H]2COc2ccc(F)cc2C(=O)N1C    1
2. COCCNC(=O)[C@@H]1COCC(=O)N2C[C@@H](N3CCN(Cc4ccccc4)CC3)C[C@H]2COc2cccc(c2)C(=O)N1C    65
3. CN1C[C@H](NC(=O)OCc2ccccc2)C(=O)N(C)CC(=O)N2C[C@@H](NC(=O)Cc3c[nH]c4ccccc34)C[C@H]2COc2cccc(c2)C1=O    12
4. CC(C)CN1C[C@H]2C[C@H]1COc1ccc(F)cc1C(=O)N(C)CCC[C@H](NC(=O)Cc1ccccc1)C(=O)N2    47

I = CN1CCC[C@H](NC(=O)CC(C)(C)C)C(=O)N2C[C@@H](N)C[C@H]2COc2cccc(c2)C1=O
II = CN(C)CCNC(=O)[C@@H]1CCC(=O)N(C)CC(=O)N2C[C@@H](NC(=O)Cc3cccc4ccccc34)C[C@H]2COc2ccc(F)cc2C(=O)N1C
I need your help: which of the pair I , II has higher Metabolic Stability 60 min hum [% remain.]? Write down the label attached to your selection.
I

====

# ASSAY_NOTES: in vitro
# Format: in vitro ADME, human
# CONDITION_DESCRIPTION: human, plasma, 4 h, 10 µM
READOUT: Plasma Stability 240 min hum [% remain.] (% remain.)

1. COCCNC(=O)[C@@H]1COCC(=O)N2C[C@@H](N3CCN(C)CC3)C[C@H]2COc2cccc(c2)C(=O)N1C [Ex. 377]    95
2. COCCNC(=O)[C@@H]1COCC(=O)N2C[C@@H](NCC(C)C)C[C@H]2COc2cccc(c2)C(=O)N1C [Ex. 376]    90
3. CCN(CC)[C@@H]1C[C@H]2COc3ccc(cc3)C(=O)N(C)[C@H](C(=O)NCc3ccc4ccccc4c3)CCC(=O)N(C)CC(=O)N2C1 [Ex. 262]    100
4. CN1CCC[C@H](NC(=O)CC(C)(C)C)C(=O)N2C[C@@H](O)C[C@H]2COc2cccc(c2)C1=O [Ex. 571]    86
5. CN1C(=O)c2cccc(c2)OC[C@@H]2C[C@H](NC(=O)CCc3ccncc3)CN2C(=O)COC[C@H]1C(=O)NCc1ccc2ccccc2c1 [Ex. 372]    68
6. CCCCC(=O)N[C@H]1C[C@H]2COc3ccc(F)cc3C(=O)N(C)[C@@H](C(=O)NCc3ccc4ccccc4c3)CCC(=O)N(C)CC(=O)N2C1 [Ex. 103]    97
7. CN1CCC[C@H](N2CCNCC2)C(=O)N2C[C@@H](O)C[C@H]2COc2cccc(c2)C1=O [Ex. 580]    70
8. CCCCC(=O)N[C@@H]1C[C@H]2COc3ccc(F)cc3C(=O)N(C)[C@H](C(=O)N(C)CCN(C)C)CCC(=O)N(C)CC(=O)N2C1 [Ex. 78]    65
9. CN1CCC[C@H](N2CCN(S(C)(=O)=O)CC2)C(=O)N2C[C@@H](O)C[C@H]2COc2cccc(c2)C1=O [Ex. 583]    91

====

# ASSAYED_SYSTEM: Prostaglandin F (FP) Receptor (Homo sapiens, UniProt P43088)
# Construct: host or cells: Ca2+ optimized hematopoietic cell lines (rat)
# Sequence (P43088 whole entry): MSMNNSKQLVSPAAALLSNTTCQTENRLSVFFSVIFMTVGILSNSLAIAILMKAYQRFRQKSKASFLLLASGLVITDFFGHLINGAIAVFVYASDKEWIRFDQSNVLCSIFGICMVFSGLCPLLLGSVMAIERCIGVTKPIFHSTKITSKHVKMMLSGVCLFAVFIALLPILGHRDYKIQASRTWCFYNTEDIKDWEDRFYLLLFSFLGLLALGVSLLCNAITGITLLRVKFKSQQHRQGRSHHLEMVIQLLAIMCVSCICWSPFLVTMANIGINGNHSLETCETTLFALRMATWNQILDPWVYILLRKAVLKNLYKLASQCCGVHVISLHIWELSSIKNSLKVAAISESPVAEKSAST
# ASSAY_NOTES: Ca2+ assay (FLIPR) for the GPCR prostaglandin F (FP) receptor, agonist and antagonist mode
# Type: cell-based
# CONDITION_DESCRIPTION: 10 μM
READOUT: inhibition at 10 µM (%)

1) CN1CCC[C@H](NC(=O)Cc2cccc3ccccc23)C(=O)N2C[C@@H](NC(=O)Cc3ccc(-c4ccccc4)cc3)C[C@H]2COc2cccc(c2)C1=O [Ex. 545]    80
2) CN1CCC[C@H](NC(=O)Cc2ccc3ccccc3c2)C(=O)N2C[C@@H](NC(=O)Cc3ccc4ccccc4c3)C[C@H]2COc2cccc(c2)C1=O [Ex. 186]    53
3) CN1CCC[C@H](NC(=O)Cc2cccc(-c3ccccc3)c2)C(=O)N2C[C@@H](NC(=O)Nc3cccc(N(C)C)c3)C[C@H]2COc2cccc(c2)C1=O [Ex. 525]    99

a = CN1CCC[C@H](NC(=O)Cc2cccc3ccccc23)C(=O)N2C[C@@H](NC(=O)C(c3ccccc3)c3ccccc3)C[C@H]2COc2cccc(c2)C1=O [Ex. 549]
b = CN1CCC[C@H](NC(=O)CCCCCc2ccccc2)C(=O)N2C[C@@H](NC(=O)Cc3ccc4ccccc4c3)C[C@H]2COc2cccc(c2)C1=O [Ex. 516]
Min inhibition at 10 µM? a | b Write down the label attached to your selection.
a

====

# ASSAY_NOTES: in vitro
# Type: in vitro ADME, mouse
# CONDITION_DESCRIPTION: both, CD-1, mouse, plasma, 4 h, 10 µM
READOUT: Plasma Stability 240 min mouse [% remain.] (% remain.)

1) CN1CC(=O)N2C[C@@H](NC(=O)Cc3cccc4ccccc34)C[C@H]2COc2ccc(F)cc2C(=O)N(C)[C@H](C(=O)NCCNC(=N)N)CCC1=O    90
2) CCCCC(=O)N[C@H]1C[C@H]2COc3ccc(F)cc3C(=O)N(C)[C@@H](C(=O)NCc3ccc4ccccc4c3)CCC(=O)N(C)CC(=O)N2C1    75
3) CN1CCC(NC(=O)OCc2ccccc2)C(=O)N2CC(NC(=O)Cc3ccc4ccccc4c3)CC2COc2cccc(c2)C1=O (stereo not drawn)    99
4) CC(=O)N[C@H]1C[C@H]2COc3ccc(F)cc3C(=O)N(C)[C@H](C(=O)NCCc3c[nH]c4ccccc34)CCC(=O)N(C)CC(=O)N2C1    93
5) CN(C)CC(=O)N[C@@H]1C[C@H]2COc3cccc(c3)C(=O)N(C)C[C@H](NC(=O)Cc3ccc4ccccc4c3)C(=O)N(C)CC(=O)N2C1    95
6) CN1CC(=O)N2C[C@H](NC(=O)Cc3ccc4ccccc4c3)C[C@H]2COc2ccc(cc2)C(=O)N(C)[C@H](C(=O)N2CCCC2)CCC1=O    88
